Test system: HeLa cells
Assay procedure: Cell proliferation assay (XTT), cytostatic activity
Assay type: cell-based
Assay context: Homo sapiens, 72-h treatment, XTT cell proliferation kit
Property name: IC50 (nM)

# example entries with known answers
Request: I am curious: what IC50 value has been reported for `C=C(c1cc(Cl)nc(Cl)c1)c1ccc2c(c1)c(C=O)cn2C` ?
Response: 200

Request: I am curious: what IC50 value has been reported for `CSc1cc(C(=O)c2ccc3c(ccn3C)c2)cc(N(C)C)n1` ?
Response: 500

Request: I am curious: what IC50 value has been reported for `C=C(c1ccc2c(c1)c(C#N)cn2C)c1ccc(OC)c(OC)c1OC` ?
Response: 32

Request: I am curious: what IC50 value has been reported for COc1cc(C(C)c2ccc3c(ccn3C)c2)cc(OC)c1OC (stereo not shown) ?
Response: 0.64

Request: I am curious: what IC50 value has been reported for `C=C(c1cc(SC)nc(N(C)C)c1)c1ccc2c(c1)c(C(N)=O)cn2C` ?
Response: 600

Request: I am curious: what IC50 value has been reported for `COc1cc(/C=C\c2ccc3c(ccn3C)c2)cc(OC)c1OC` ?
Response: 250

I = C=C(c1cc(Cl)nc(N(C)C)c1)c1ccc2c(c1)c(C#N)cn2C
II = C=C(c1cc(OC)c(OC)c(OC)c1)c1ccc2c(c1)c(C=NN)cn2C
Request: For I and II , which recorded IC50 is lower? Answer = label.
Response: II
(II: 38 nM, I: 600 nM)

P = COc1cc(OC)cc(N(C)S(=O)(=O)c2ccc3c(ccn3C)c2)c1
Q = COc1cc(C(=O)c2ccc3c(c2)c(C(=O)O)cn3C)cc(OC)c1OC
R = C=C(c1cc(SC)nc(N(C)C)c1)c1ccc2c(c1)c(C(=O)O)cn2C
Request: Sort ascending by IC50. Response field: labels, in requested order.
Response: P, R, Q

1 = COc1cc(C(=O)c2ccc3c(c2)c(C#N)cn3C)cc(SC)n1
2 = C=C(c1cc(OC)nc(SC)c1)c1ccc2c(c1)c(C=O)cn2C
3 = COc1cc(C(=NO)c2ccc3c(ccn3C)c2)cc(SC)n1
Request: Sort ascending by IC50. Response field: labels, in requested order.
Response: 3, 2, 1
(3: 200 nM, 2: 400 nM, 1: 800 nM)

* * *

System: HeLa cells
Assay procedure: Cell proliferation assay (XTT), cytostatic activity
Type: cell-based
Assay context: Homo sapiens, 72-h treatment, XTT cell proliferation kit
Property name: IC50 (µM)

Request: I am curious: what IC50 value has been reported for CSc1cc(C(=NO)c2ccc3c(c2)c(C#N)cn3C)cc(N(C)C)n1 [Compound 95] ?
Response: 0.3

Request: I am curious: what IC50 value has been reported for COc1cc(/C=C\c2ccc3c(c2)c(C(N)=O)cn3C)cc(OC)c1OC [Compound 39] ?
Response: 1.2

1 = CSc1cc(C(=NO)c2ccc3c(ccn3C)c2)cc(Cl)n1 (mixture of isomers) [Compound 66]
2 = C=C(c1cc(OC)c(OC)c(OC)c1)c1ccc2c(c1)c(C=NO)cn2C [Compound 19]
3 = C=C(c1cc(OC)c(OC)c(OC)c1)c1ccc2c(c1)c(C=O)cn2C [Compound 11]
4 = C=C(c1cc(Cl)nc(N(C)C)c1)c1ccc2c(ccn2C)c1 [Compound 99]
Request: # rank_down: sort by IC50, max first Response field: labels, in requested order.
Response: 1, 4, 3, 2
(1: 0.3 µM, 4: 0.1 µM, 3: 0.02 µM, 2: 0.0062 µM)
